# Tested on: right ventricle (effective refractory period)
# TEST: Activity on ERP of the right ventricle
# Assay type: in vivo, adult mongrel dog
# CONDITION NOTES: Canis lupus familiaris, iv; 1 mg/kg i.v.; ERP before drug = 100%; read-out: ERP % (ERP prolonging activity)
REPORTED ENDPOINT: change in vivo at 1 mg/kg (%)
Your answer should be a plain number; it is taken to be in %.

Solved entries (count: 4):
1) CCCCCCC[N+](CC)(CC)CCCOc1ccc2c(c1)OCC2O (centres unmarked)    2
2) O=C1COc2cc(OCCCN3CCC(CO)CC3)ccc21    11.8
3) CCC1CCN(CCCOc2ccc3c(c2)OCC3=O)CC1    13.3
4) O=C1COc2cc(OCCCN3CCC(c4ccccc4)CC3)ccc21    11

Inquiry: Would you mind telling me what change in vivo at 1 mg/kg value was observed for CCCCCCC[N+](CC)(CC)CCCOc1ccc2oc(=O)cc(C)c2c1 ?
Reply text: 8

Inquiry: Would you mind telling me what change in vivo at 1 mg/kg value was observed for CC(C)C1CCN(CCCOc2ccc3c(c2)OCC3=O)CC1 ?
Reply text: 13

Inquiry: Would you mind telling me what change in vivo at 1 mg/kg value was observed for CCCCCCCN(CC)CCCOc1ccc2c(c1)OCC2=O.Cl [Compound 102, hydrochloride] ?
Reply text: 23.3

Inquiry: Would you mind telling me what change in vivo at 1 mg/kg value was observed for CCOC(=O)C1CCN(CCCOc2ccc3c(c2)OCC3=O)CC1 ?
Reply text: 6

Inquiry: Would you mind telling me what change in vivo at 1 mg/kg value was observed for CCCCCCCN(CC)CCCCOc1ccc2c(c1)OCC2=O ?
Reply text: 13.8

Inquiry: Would you mind telling me what change in vivo at 1 mg/kg value was observed for CC1CCN(CCCOc2ccc3c(c2)OCC3=O)CC1 ?
Reply text: 9

Inquiry: Would you mind telling me what change in vivo at 1 mg/kg value was observed for COCCN(CCCOc1ccc2c(c1)OCC2=O)CCOC ?
Reply text: 7

Inquiry: Would you mind telling me what change in vivo at 1 mg/kg value was observed for CCCCN(CCCC)CCCOc1ccc2c(c1)OCC2=O ?
Reply text: 21.1

Inquiry: Would you mind telling me what change in vivo at 1 mg/kg value was observed for CCCCCCC[N+](CC)(CC)CCCCc1ccc(Cl)cc1 [Clofilium, reference compound] ?
Reply text: 22.4

Inquiry: Would you mind telling me what change in vivo at 1 mg/kg value was observed for CCCCCCC[N+](CC)(CC)CCCOc1ccc2c(c1)OCC2=O.[Br-] ?
Reply text: 15.7

Inquiry: Would you mind telling me what change in vivo at 1 mg/kg value was observed for CC(C)NCC(O)c1ccc(NS(C)(=O)=O)cc1 (centres unmarked) [Sotalol, reference compound] ?
Reply text: 8.7

Inquiry: Would you mind telling me what change in vivo at 1 mg/kg value was observed for CC1CCCN(CCCOc2ccc3c(c2)OCC3=O)C1 (centres unmarked) ?
Reply text: 22

Inquiry: Would you mind telling me what change in vivo at 1 mg/kg value was observed for O=C1COc2cc(OCCCN3CCC(Cc4ccccc4)CC3)ccc21 ?
Reply text: 20

---

Recorded measurements of LD50 at 24 h, one per entry
# TEST: in vivo
# CONDITION NOTES: mouse, in vivo, po, LD50 p.o., p.o., 24 hours after administration, male ddY mice

Solved entries (count: 5):
1) CCCCN(CCCOc1ccc2c(c1)OCC2=O)CC(C)C    > 300 mg/kg
2) CCCCCCCN(CC)CCCOc1ccc2c(c1OC)OCC2=O    ~300 mg/kg
3) O=C1COc2cc(OCCCN3CCCCC3)ccc21    > 300 mg/kg
4) CC(C)C1CCN(CCCOc2ccc3c(c2)OCC3=O)CC1    > 300 mg/kg
5) CC1CCCCN1CCCOc1ccc2c(c1)OCC2=O (centres unmarked)    > 300 mg/kg

Inquiry: Would you mind telling me what LD50 at 24 h value was observed for O=C1COc2cc(OCCCN3CCC4(CC3)OCCO4)ccc21 ?
Reply text: > 300 mg/kg

Inquiry: Would you mind telling me what LD50 at 24 h value was observed for O=C1COc2cc(OCCCN3CCC(Cc4ccccc4)CC3)ccc21 ?
Reply text: > 300 mg/kg

Inquiry: Would you mind telling me what LD50 at 24 h value was observed for CCN(CCCOc1ccc2c(c1)OCC2=O)CC1CCCO1 (centres unmarked) ?
Reply text: ~300 mg/kg

Inquiry: Would you mind telling me what LD50 at 24 h value was observed for CCCCCCC[N+](CC)(CC)CCCOc1ccc2oc(=O)cc(C)c2c1 ?
Reply text: > 300 mg/kg
